Provenance of the data: patent US12037395

The following binders are shown together with reported koff values.
Target: T1, recombinant human PD-1-his (Sino biological, #10377-H08H) (human, UniProt Q15116 25-167)
T1 construct: Bought protein; also called Human PD-1-his protein; not shown: his tag
T1 sequence (Q15116 25-167 limits assumed): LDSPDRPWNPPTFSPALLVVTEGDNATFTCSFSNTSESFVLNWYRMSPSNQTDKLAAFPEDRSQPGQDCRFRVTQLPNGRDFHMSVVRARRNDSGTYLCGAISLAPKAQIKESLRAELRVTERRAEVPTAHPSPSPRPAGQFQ
Assay: SPR (Biacore T200), antibody captured, antigen flowed
From the text: Briefly, goat […] (GE healthcare, Cat #BR100839, Human Antibody Capture Kit) was covalently linked to a CM5 chip (carboxy methyl dextran coated chip) via primary amines, using a standard amine coupling kit (GE healthcare, Pittsburgh, PA, USA) provided by Biacore. Unreacted moieties on the biosensor surface were blocked with ethanolamine. […]
// units = s⁻¹; emit number, no label

binder="mouse anti-PD-1 monoclonal antibody C1C5 (antibody, mouse IgG1, kappa, V domains shown, Purified from hybridoma; Constant regions tied only generically to 'mouse antibodies') VH: QIQLVQSGPELKKPGETVKISCKASGYTFTNYGINWVKQAPGKGLKWMGWINTYSGEPTYSDDFKGRFAFSLETSASTAYLQINNLKNEDTSTYFCVRQGDFDYEDAMDYWGQGTSVTVSS VL: DVLMTQSPLSLPVSLGDQASISCRSSQSIVHSNGHIYLEWYLQKPGQSPKLLIYKVSKRFSGVPDRFSGSGSGTDFTLKISRVEAEDLGVYYCFQGSHGTFGGGTKLEIKR" observedmeasurement=0.000203

The value of koff measured for the binder mouse anti-PD-1 monoclonal antibody 2G2 (antibody, mouse IgG1, kappa, V domains shown, Purified from hybridoma; Constant regions tied only generically to 'mouse antibodies'; also called Clone 2G2) VH: EVQLVESGGDLVKPGGSLKLSCTASGFTFSYYGMSWVRQTPDKRLEWVATISSGSSFTYSPDSVKGRFTISRDNAKNTLYLQMNSLKSEDTAIYYCTRREGIYDASWDYSMDYWGQGTSVTVSS VL: DVLMTQTPLSLPVSLGDQASISCRSSQSIIRSNGNTYLEWYLQKPGQSPKLLIYKVSNRFSGVPDRFSGSGSGTDFTLKISRVEADDLGLYYCFQGSHVPWTFGGGTKLEIKR turned out to be 0.000436

The value of koff measured for the binder mouse anti-PD-1 monoclonal antibody C1F4 (antibody, mouse IgG1, kappa, V domains shown, Purified from hybridoma; Constant regions tied only generically to 'mouse antibodies') VH: QVQLQQSGAELVRPGVSVKISCKGSGYKFTDYAMHWVRQSHAKSLEWIGIISTYSGDVSFNQNFKGKATMTVDKSSSTAYMELARLTSEDSAIYYCSRLGITAGFAYWGQGTLVTVSA VL: DIVMTQSQKFMSTSVGDRVTITCKASQNVRTAVAWYQQKPGQSPKALIYLASNRHTGVPDRFTGSGSGTDFTLTISNVQSKDLADYFCLQHWNYPYTFGGGTKLEIKR turned out to be 0.000359
